conditions: buffer; pH 7.4; 6.0 h; 150.0 µM
Binary call on solubility kinetic: class 1 from 30 µg/mL upward, class 0 beneath that.

Use these answered entries as a reference point.
>>> classification("CC(C)(C)c1ccc(-c2nc(SCCCOc3ccccc3)n3[nH]c(=O)cc3n2)cc1")
"class 0"
>>> classification("CN(C)CCOC1=Cc2ccccc2Sc2ccc(Cl)cc21")
"class 0"
>>> classification("CC(C)(C)c1ccc(C(=O)N2CC(=O)Nc3ccc(F)cc3C2c2ccc(F)cc2)cc1 (stereo not drawn)")
"class 0"
>>> classification("COc1cccc(CNc2ccc(S(=O)(=O)Nc3cccc4ccccc34)cc2)c1O")
"class 0"
>>> classification("COc1ccc(CCNC(=O)c2cc3c(=O)n4ccccc4nc3n(CCCN3CCOCC3)c2=N)cc1")
"class 1"

Ask: Hello, I need to know if CCCCCCCc1c(C)nc(N2CCOCC2)[nH]c1=O has measured solubility kinetic not below 30 µg/mL. Thanks!
Result: class 0

Ask: Hello, I need to know if O=S(=O)(Nc1ccccc1)c1ccc(NCc2cccc(Cl)c2O)cc1 has measured solubility kinetic not below 30 µg/mL. Thanks!
Result: class 0

Ask: Hello, I need to know if O=C(NCC1CCN(Cc2cccc(Cl)c2)CC1)Nc1ccc(F)c(Cl)c1 has measured solubility kinetic not below 30 µg/mL. Thanks!
Result: class 0

Ask: Hello, I need to know if CC(C)c1ccccc1-c1ncc(F)c(NCC2CCN(c3cnccn3)C2)n1 (stereo not drawn) has measured solubility kinetic not below 30 µg/mL. Thanks!
Result: class 1

Ask: Hello, I need to know if Cn1cc(C2=C(c3cn(CCCSC(=N)N)c4ccccc34)C(=O)NC2=O)c2ccccc21 has measured solubility kinetic not below 30 µg/mL. Thanks!
Result: class 0

These data points were gathered from PubChem BioAssay AID1645848.
